# Tested on: Jurkat (FADD−/−) cells
# Protocol summary: Inhibition of TNF-induced programmed Jurkat (FADD−/−) cell necrosis (Cell Titer-Glo)
# Type: cell-based, human
# Condition label: Homo sapiens, Jurkat, 20 h, TNF 10 ng/mL, intracellular ATP level, read-out: Cellular IC50 (M) Jurkat (FADD−/−)
Measure name: IC50 (M)

Cpd smiles	Test target	Measure name	U	Bound sign	Readout number
CN1C(=O)[C@@H](NC(=O)c2cn(Cc3ccccc3)cn2)CSc2ccc3cnccc3c21	Jurkat (FADD−/−) cells	IC50	M	=	7.4e-10
CN1C(=O)[C@@H](NC(=O)c2nc(Cc3ccccc3)n[nH]2)COc2cc3[nH]c(=O)[nH]c3cc21	Jurkat (FADD−/−) cells	IC50	M	>	2e-06
Cc1nc2cc3c(cc2[nH]1)OC[C@H](NC(=O)c1ncn(Cc2ccccc2)n1)C(=O)N3C	Jurkat (FADD−/−) cells	IC50	M	=	7.62e-09
CN1C(=O)[C@@H](NC(=O)c2cn(Cc3ccccc3)nn2)COc2cc3[nH]nc(Cl)c3cc21	Jurkat (FADD−/−) cells	IC50	M	=	1.94e-09
CN1C(=O)[C@@H](NC(=O)c2nnc(Oc3ccccc3)[nH]2)COc2cc3ncoc3cc21	Jurkat (FADD−/−) cells	IC50	M	=	2.72e-07

----------
Attribute: IC50
# System: Jurkat (FADD−/−) cells
# Protocol summary: Inhibition of TNF-induced programmed Jurkat (FADD−/−) cell necrosis (Cell Titer-Glo)
# Format: cell-based, human
# Condition label: Homo sapiens, Jurkat, 20 h, TNF 10 ng/mL, intracellular ATP level, read-out: Cellular IC50 (M) Jurkat (FADD−/−)

Molecule	Bound sign	IC50 [M]
CN1C(=O)[C@@H](NC(=O)c2cncn2Cc2ccccc2)CSc2cc3[nH]ncc3cc21 [RIP1-017]	>	2e-06
CN1C(=O)[C@@H](NC(=O)c2n[nH]c(Cc3cccc(F)c3)n2)COc2cc3ncoc3cc21 [RIP1-222]	=	5.62e-09
Cc1nc2cc3c(cc2[nH]1)OC[C@@H](NC(=O)c1cncn1Cc1ccccc1)C(=O)N3C (stereo in doubt) [RIP1-069]	=	4.52e-09
CN1C(=O)[C@H](NC(=O)c2cc(Cc3ccccc3)on2)COc2cc3c(ccn3C)cc21 [RIP1-080]	>	2e-06
CN1C(=O)[C@@H](NC(=O)c2cn(Cc3ccccc3)nn2)COc2cc3[nH]ccc3cc21 [RIP1-115]	=	3.48e-09
CN1C(=O)[C@@H](NC(=O)c2cc(Oc3ccccc3)ccn2)COc2cc3[nH]nnc3cc21 [RIP1-181]	=	5.92e-10
CN1C(=O)[C@@H](NC(=O)c2cc(Oc3ccc(F)cc3)ccn2)COc2ccc3ncccc3c21 [RIP1-197]	=	2.92e-08
CN1C(=O)[C@@H](NC(=O)c2cc(Oc3ccccc3)ccn2)COc2cc3occc3cc21 [RIP1-180]	=	2.66e-10
CN1C(=O)[C@@H](NC(=O)c2n[nH]c(Cc3c(F)cc(F)cc3F)n2)COc2cc3occc3cc21 [RIP1-173]	=	7e-08
CN1C(=O)[C@@H](NC(=O)c2nnn(Cc3ccccc3)n2)COc2cc3[nH]nnc3cc21 [RIP1-139]	=	7.81e-10
CN1C(=O)[C@@H](NC(=O)c2cn(Cc3ccccc3)cn2)CSc2cc3c(ccn3Cc3ccccc3)cc21 [RIP1-088]	>	2e-06
CN1C(=O)[C@@H](NC(=O)c2nnn(Cc3ccccc3)n2)COc2cc3[nH]c(=O)[nH]c3cc21 [RIP1-075]	=	4.73e-10
CN1C(=O)[C@@H](NC(=O)c2ncn(Cc3ccccc3)n2)CSc2cc3occc3cc21 [RIP1-037]	=	1.29e-10
CN1C(=O)[C@@H](NC(=O)c2cn(Cc3ccccc3)cn2)COc2cc3[nH]nc(Cl)c3cc21 [RIP1-031]	=	2.9e-10
CN1C(=O)[C@@H](NC(=O)c2nnc(Cc3ccccc3)[nH]2)CSc2ccc3cnccc3c21 [RIP1-102]	=	9e-10
CN1C(=O)[C@@H](NC(=O)c2ncn(Cc3ccccc3)n2)COc2cc3occc3cc21 [RIP1-119]	=	5.81e-10
CN1C(=O)[C@@H](NC(=O)c2cc(Cc3ccccc3)on2)COc2cc3[nH]nc(Cl)c3cc21 [RIP1-033]	=	6.8e-10
CN1C(=O)[C@@H](NC(=O)c2n[nH]c(Cc3cccc(F)c3)n2)COc2ccc3cnccc3c21 [RIP1-165]	=	2.5e-09
CN1C(=O)[C@@H](NC(=O)c2n[nH]c(Cc3ccc(F)cc3)n2)COc2cc3nccnc3cc21 [RIP1-207]	=	4.88e-09
O=C(N[C@H]1COc2ccc3cccnc3c2NC1=O)c1n[nH]c(Cc2ccccc2)n1 [RIP1-149]	>	2e-06
CN1C(=O)[C@@H](NC(=O)c2n[nH]c(Cc3ccc(F)cc3)n2)COc2ccc3cnccc3c21 [RIP1-164]	=	3.3e-09
COc1ncnc2cc3c(cc12)N(C)C(=O)[C@@H](NC(=O)c1cn(Cc2ccccc2)cn1)CO3 [RIP1-147]	=	1.69e-09
CN1C(=O)[C@@H](NC(=O)c2nnc(Cc3ccccc3)[nH]2)COc2cc3[nH]ccc3cc21 [RIP1-112]	=	1.22e-09
CN1C(=O)[C@@H](NC(=O)c2n[nH]c(Cc3ccc(F)cc3)n2)COc2ccc3ncccc3c21 [RIP1-171]	=	1.4e-08
CN1C(=O)[C@@H](NC(=O)c2n[nH]c(Cc3ccccc3)n2)COc2cc3ncnc(O)c3cc21 [RIP1-187]	=	2.59e-07
